Would you kindly list LIPASE for each of these compounds?
species on record: Rattus norvegicus; assay: DrugMatrix - Regimen: Daily Repeat; format: toxicity, organism-based, Sprague-Dawley; design: regimen Daily Repeat, gender Male, age 6-8 weeks; conditions: in vivo, po, 0 mg/kg, 120 h, tissue Plasma, route oral GAVAGE, dose level Control, time 5 day, […]
Give the number first and the unit second.

Quick one: LIPASE of Cc1cccc(C)c1NC(=O)C(C)N (configuration not stated) [TOCAINIDE] ?
10.5 u/L

Can you give me LIPASE for all of these, one by one?
1. CCC(C)(C)C(=O)O[C@H]1C[C@@H](C)C=C2C=C[C@H](C)[C@H](CC[C@@H]3C[C@@H](O)CC(=O)O3)[C@H]21
2. CO[C@H]1O[C@@H]2O[C@@]3(C)CC[C@H]4[C@H](C)CC[C@@H]([C@H]1C)[C@@]24OO3
3. COC(=O)Nc1nc2ccc(C(=O)c3ccccc3)cc2[nH]1
4. Oc1ncnc2[nH]ncc12
5. CCOC(=O)C1=C(C)NC(C)=C(C(=O)OCC)C1c1ccccc1/C=C/C(=O)OC(C)(C)C
6. O=C(Nc1ccc(Cl)c(Cl)c1)c1cc(Cl)cc(Cl)c1O [3,3',4',5-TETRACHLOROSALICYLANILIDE]

["9.5 u/L", "9.33 u/L", "10.5 u/L", "10.17 u/L", "10 u/L", "10.83 u/L"]

* * *

organism: Rattus norvegicus; assay: DrugMatrix - Regimen: Daily Repeat; format: toxicity, organism-based, Sprague-Dawley; set-up: regimen Daily Repeat, gender Male, age 6-8 weeks; conditions: in vivo, po, 0 mg/kg, 120 h, tissue Plasma, route oral GAVAGE, dose level Control, time 5 day, vehicle .5 % CMC
Would you kindly list TOTAL PROTEIN for each of these molecules?
Answers are plain numbers, in G/DL.

Example entries begin here.
Quick one: TOTAL PROTEIN of COc1cc(/C=C/C(=O)O)ccc1O [FERULATE] ?
6.1

Quick one: TOTAL PROTEIN of O=C1c2ccccc2C(=O)C1c1ccccc1 ?
6.72

Quick one: TOTAL PROTEIN of CC(C)NCC(O)COc1ccc(CC(N)=O)cc1 (centres undefined) ?
6.25

Pending molecule:
Quick one: TOTAL PROTEIN of CCN1CCCC1CNC(=O)c1cc(S(N)(=O)=O)ccc1OC (centres undefined) [SULPIRIDE] ?
6.1

* * *

species on record: Rattus norvegicus; assay: DrugMatrix - Regimen: Daily Repeat; assay type: toxicity, organism-based, Sprague-Dawley; parameters: regimen Daily Repeat, gender Male, age 6-8 weeks; details: in vivo, po, 0 mg/kg, 72 h, tissue Blood, route oral GAVAGE, dose level Control, time 3 day, vehicle .5 % CMC
property label: MEAN CORPUSCULAR HEMOGLOBIN CONCENTRATION (G/DL)
Numbers only, in G/DL.

Example entries begin here.
Quick one: MEAN CORPUSCULAR HEMOGLOBIN CONCENTRATION of CC(C)(C#N)c1cc(Cn2cncn2)cc(C(C)(C)C#N)c1 [ANASTROZOLE] ?
38.82

Quick one: MEAN CORPUSCULAR HEMOGLOBIN CONCENTRATION of CCN1CCCC1CNC(=O)c1cc(S(N)(=O)=O)ccc1OC (centres undefined) [SULPIRIDE] ?
38.85

Quick one: MEAN CORPUSCULAR HEMOGLOBIN CONCENTRATION of NC(=O)NC(=O)Cc1ccccc1 [PHENACEMIDE] ?
36.9

Can you give me MEAN CORPUSCULAR HEMOGLOBIN CONCENTRATION for all of these, one by one?
1. COc1cc(/C=C/C(=O)O)ccc1O [FERULATE]
2. COc1cc(NC(C)CCCN)c2ncccc2c1 (centres undefined) [PRIMAQUINE]
3. Cl.NC[C@H]1CC[C@H](C(=O)Oc2ccc(CCC(=O)O)cc2)CC1 [CETRAXATE HYDROCHLORIDE]
4. COc1ccc(Cl)cc1C(=O)NCCc1ccc(S(=O)(=O)NC(=O)NC2CCCCC2)cc1 [GLYBURIDE]
5. CCN1C[C@]2(COC)[C@H](O)C[C@H](OC)[C@@]34[C@@H]5C[C@@]6(O)[C@H](OC(=O)c7ccccc7)[C@@H]5[C@@](OC(C)=O)([C@@H]([C@H](OC)[C@H]23)[C@@H]14)[C@@H](O)[C@@H]6OC [ACONITINE]
6. CCN(CC)CCNC(=O)c1cc(Cl)c(N)cc1OC [METOCLOPRAMIDE]

37.43
39.44
37.43
39.5
31
37.4
